The measurements presented in this section are drawn from patent US20240309093A1.

target: T1, recombinant human PD-1-his protein (human, UniProt Q15116 25-167); experiment: ELISA; PD-1-his coated 2 µg/mL, anti-human IgG Fc-HRP
T1 construct: also called hPD-1-his; not shown: his tag
T1 sequence (Q15116 25-167 limits assumed): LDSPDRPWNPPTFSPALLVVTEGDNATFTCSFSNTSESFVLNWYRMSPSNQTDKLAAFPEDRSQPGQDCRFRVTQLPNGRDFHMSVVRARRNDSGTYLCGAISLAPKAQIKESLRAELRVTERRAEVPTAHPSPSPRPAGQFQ
measurement.label: EC50 (nM)

These solved cases illustrate the format of a correct answer.
MHPD1-A-21 H Fc (Fc fusion, not shown: a dimerising Fc or GST; small tags and cut ends) VHH: QVQLVESGGGLVQPGGSLRLSCATSGSRRSIYAMGWFRQAPGKGLEFVAGIGWAYATSYYADSVKGRFTISRDNTKNTLYLQMNSLRAEDTAVYYCAADLDHSGFDYWGQGTLVTVSS = 0.179
MHPD1-A-18 H Fc (Fc fusion, not shown: a dimerising Fc or GST; small tags and cut ends) VHH: QVQLVESGGGLVQPGGSLRLSCATSGSRSSIYAMGWFRQAPGKGLEFVAGLGWAYATTYYADSVKGRFTISRDNTKNTLYLQMNSLRAEDTAVYYCAADLDHLGFDYWGQGTLVTVSS = 0.178
MHPD1-A-44 H Fc (Fc fusion, not shown: Fc) QVQLVESGGGLVQPGGSLRLSCATSGSRTRIYAMGWFRQAPGKGLEFVAGIGWAYATEYYADSVKGRFTISRDNTKNTLYLQMNSLRAEDTAVYYCAADLDHSGFDYWGQGTLVTVSS = 0.198
MHPD1-A-33 H Fc (Fc fusion, not shown: Fc region) VHH: QVQLVESGGGLVQPGGSLRLSCATSGSRSQIYAMGWFRQAPGKGLEFVAGIGWAYATTYYADSVKGRFTISRDNTKNTLYLQMNSLRAEDTAVYYCAADLDHSGFDYWGQGTLVTVSS = 0.628

[P] MHPD1-A-24 H Fc (Fc fusion, not shown: Fc) QVQLVESGGGLVQPGGSLRLSCATSGSRHSIYAMGWFRQAPGKGLEFVAGIGWAYATTYYADSVKGRFTISRDNTKNTLYLQMNSLRAEDTAVYYCAADLDRAGFDYWGQGTLVTVSS
[Q] MHPD1-A-35 H Fc (Fc fusion, not shown: Fc region) VHH: QVQLVESGGGLVQPGGSLRLSCATSAPRRSIYAMGWFRQAPGKGLEFVAGIGWAYGTTYYADSVKGRFTISRDNTKNTLYLQMNSLRAEDTAVYYCAADLDHSGFDYWGQGTLVTVSS
[R] MHPD1-A-29 H Fc (Fc fusion, not shown: Fc region) VHH: QVQLVESGGGLVQPGGSLRLSCATSGSGGSIYAMGWFRQAPGKGLEFVAGIGWAYATTYYADSVKGRFTISRDNTKNTLYLQMNSLRAEDTAVYYCAADLDHSGFDYWGQGTLVTVSS
[S] MHPD1-A-27 H Fc (Fc fusion, not shown: Fc region) VHH: QVQLVESGGGLVQPGGSLRLSCATSKSRRSIYAMGWFRQAPGKGLEFVAGIGWAYATTYYADSVKGRFTISRDNTKNTLYLQMNSLRAEDTAVYYCAADLDHSGFDYWGQGTLVTVSS
Exam item: Descending sort on EC50 required. Please respond with the labels ordered as the question requires.
Marked response: R, Q, S, P
(R: 2.18 nM, Q: 0.824 nM, S: 0.54 nM, P: 0.177 nM)
